The following compounds are listed with their measured EC50 values.
- TESTED_SYSTEM: GLP-1R (Homo sapiens, UniProt P43220)
- Sequence (P43220 24-463): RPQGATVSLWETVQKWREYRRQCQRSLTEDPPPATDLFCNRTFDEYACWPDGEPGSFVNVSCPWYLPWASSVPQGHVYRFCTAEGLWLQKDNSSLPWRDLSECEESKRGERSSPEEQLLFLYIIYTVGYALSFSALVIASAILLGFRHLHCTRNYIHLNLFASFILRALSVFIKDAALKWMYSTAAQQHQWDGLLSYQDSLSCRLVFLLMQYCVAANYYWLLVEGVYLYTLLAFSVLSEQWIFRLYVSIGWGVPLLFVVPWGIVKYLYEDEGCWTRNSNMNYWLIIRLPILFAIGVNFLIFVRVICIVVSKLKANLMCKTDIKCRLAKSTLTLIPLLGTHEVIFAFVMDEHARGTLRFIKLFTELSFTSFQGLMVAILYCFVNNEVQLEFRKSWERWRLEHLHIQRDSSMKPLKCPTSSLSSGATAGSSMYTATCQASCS
- PROCEDURE_TEXT: GLP-1R Activation - cAMP Assay
- Type: cell-based
- CONDITION_INFO: cAMP increase in CHO cells stably expressing GLP-1R; each compound run on one of the two cAMP assays (Assay 1 or Assay 2, not specified)
Write it as a number; the unit nM goes unstated.

# count of solved cases: 5
1. CC1(C)COC[C@H]1n1c(Cc2cc(F)c(-c3cccc(OCc4ccc(-n5ccnn5)cc4)n3)cc2F)nc2c(F)cc(C(=O)O)cc21; 0.018
2. CC1(C)COC[C@H]1n1c(Cc2cc(F)c(-c3cccc(OCc4ccc(C(F)F)cc4F)n3)cc2F)nc2c(F)cc(C(=O)O)cc21 (single isomer, unassigned) [Example 502A]; 0.281
3. CC1(C)COC[C@H]1n1c(Cc2ccc(-c3ccc(F)c(OCc4ccc(C#N)cc4)n3)cc2F)nc2ccc(C(=O)O)cc21; 0.042
4. COCCn1c(Cc2c(F)cc(-c3ccc(F)c(OCc4ccc(C#N)cc4F)n3)c(F)c2F)nc2c(F)cc(C(=O)O)cc21; 0.118
5. CC1(C)COC[C@H]1n1c(Cc2c(F)cc(-c3cccc(OCc4ccc(C#N)cc4F)n3)c(F)c2F)nc2c(F)cc(C(=O)O)cc21; 0.027

Would you kindly look at the next entry?
Quick one: EC50 of COCCn1c(Cc2cc(F)c(-c3cccc(OCc4ccc(-c5cncn5C)cc4F)n3)cc2F)nc2ccc(C(=O)O)cc21 ?
11

----------
- PROCEDURE_TEXT: Pharmacokinetic (PK) studies, in vivo monkey oral PK
- Parameters: species or system Cynomolgus monkeys
- CONDITION_INFO: Cynomolgus monkey, single oral dose 2 mg/kg, plasma
PROPERTY_MEASURED: Tmax (h)
Express it in h; write the number only.

1. CC1(C)COC[C@H]1n1c(Cc2cc(F)c(-c3ccnc(OCc4ccc(Cl)cc4F)n3)cc2F)nc2c(F)cc(C(=O)O)cc21; 4.7

For CC1(C)COC[C@H]1n1c(Cc2cc(F)c(-c3cccc(OCc4ccc(C#N)cc4F)n3)cc2F)nc2ccc(C(=O)O)cc21 , what is its reported Tmax?
1.5

Reported Tmax, compound CC1(C)COC[C@H]1n1c(Cc2cc(F)c(-c3cccc(OCc4ccc(Cl)cc4F)n3)cc2F)nc2ccc(C(=O)O)cc21 : ____
2.7

Need Tmax, item N#Cc1ccc(COc2cccc(-c3cc(F)c(Cc4nc5ccc(C(=O)O)cc5n4C[C@@H]4CCO4)cc3F)n2)c(F)c1 [CE-2, reference compound]
4

I would be grateful if you could share the reported Tmax for CC1(C)COC[C@H]1n1c(Cc2cc(F)c(-c3cccc(OCc4ccc(C#N)cc4)n3)cc2F)nc2ccc(C(=O)O)cc21 .
1.7

----------
Examples of molecules with documented pEC50 follow.
- TESTED_SYSTEM: GLP-1R (Homo sapiens)
- PROCEDURE_TEXT: GLP-1R Activation - cAMP Assay
- Format: cell-based
- CONDITION_INFO: cAMP increase in CHO cells stably expressing GLP-1R; each compound run on one of the two cAMP assays (Assay 1 or Assay 2, not specified)
For clarity, pEC50 is expressed as the negative log10 of concentration in mol/L.

Known pEC50 results, listed for orientation:
1. CC1(C)COC[C@H]1n1c(Cc2cc(F)c(-c3ccc(F)c(OCc4ccc(Cl)cc4)n3)cc2F)nc2c(F)cc(C(=O)O)cc21; 10.33
2. Cn1cc(-c2cc(F)c(COc3cccc(-c4cc(F)c(Cc5nc6ccc(C(=O)O)cc6n5[C@@H]5COCC5(C)C)cc4F)n3)cn2)nn1; 10.33
3. CC1(C)COC[C@H]1n1c(Cc2cc(F)c(-c3ccc(F)c(OCc4cnc(-n5ccnn5)cc4Cl)n3)cc2F)nc2ccc(C(=O)O)cc21; 10.46

Look at this molecule and give its reported pEC50. CC1(C)COCC1n1c(Cc2c(F)cc(-c3cccc(OCc4ccc(C#N)cc4F)n3)c(F)c2F)nc2ccc(C(=O)O)cc21 (stereo not drawn)
10.40

For the molecule shown here, Cc1cc(Cc2nc3c(F)cc(C(=O)O)cc3n2[C@@H]2COCC2(C)C)c(Cl)cc1-c1cccc(OCc2ccc(C#N)cc2)n1 , give the reported pEC50.
10.68

What does the data say about its pEC50? Entry: COC[C@H]1COC[C@H]1n1c(Cc2cc(F)c(-c3cccc(OCc4ccc(Cl)cc4F)n3)cc2F)nc2ccc(C(=O)O)cc21
10.48

Data origin: patent US12570642B2
